Species: Rattus norvegicus
Procedure Details: Open TG-GATES - Regimen: Daily Repeat
Type: toxicity, organism-based, Sprague-Dawley
Set-up: regimen Daily Repeat, gender Male, age 6 weeks
Run Parameters: in vivo, po, 0 mg/kg, 72 h, tissue Plasma, route gavage, dose level Control, time 3 day
Reported Metric: PL (mg/dL)
The reply should be a number in mg/dL, with the unit left off.

Query: So what does the record say about PL for "CCC(C)(C)C(=O)O[C@H]1C[C@@H](C)C=C2C=C[C@H](C)[C@H](CC[C@@H]3C[C@@H](O)CC(=O)O3)[C@H]21" ?
Reply: 143.4

Query: Next: "CCc1oc2ccccc2c1C(=O)c1cc(I)c(O)c(I)c1"
Reply: 147.4

Query: Same question, "CN1C(=O)OC(C)(C)C1=O" this time
Reply: 166.6

Query: Here is the next compound: "C[C@]12CCC(=O)C=C1CC[C@@H]1[C@@H]2CC[C@@]2(C)[C@H]1CC[C@]2(C)O"
Reply: 142.8

Query: Let us now turn to "CCSCC[C@H](N)C(=O)O"
Reply: 149

Query: Please do the same for "CC(=O)Oc1cc(C(C)C)c(OCCN(C)C)cc1C" as well.
Reply: 154.2

Query: Try "C#C[C@]1(O)CC[C@H]2[C@@H]3CCc4cc(O)ccc4[C@H]3CC[C@@]21C" next.
Reply: 134.2

Query: Then what about the compound "C[C@](N)(Cc1ccc(O)c(O)c1)C(=O)O" ?
Reply: 129.8

Query: What do you have for CC(C)C(=O)Nc1ccc([N+](=O)[O-])c(C(F)(F)F)c1 [FLUTAMIDE] ?
Reply: 139
